Origin of the recorded values: paper PMC8617031

# Experiment: Viability (MTS) of 293T cells
# Format: cell-based, human
# Condition set: human, 293T cell viability, MTS absorbance 490 as percent of untreated control, mean of three wells, 0.037037 uM, mean of 3 wells, normalised to own plate
# Experimental: Suspension cells were treated 30 min after seeding, whereas adherent cells were allowed to adhere overnight and were then treated. Compound treatments were prepared in complete cell culture medium and 100 µl of 2× treatment-containing medium were added to each well. […] The cell viability was measured after 72 h by tetrazolium-based MTS assay. […] The cells were incubated for 4 h at 37 °C and 5% CO2, and then the absorbance was recorded at 490 nm using Biotek’s Synergy Neo2 multimode plate reader (Biotek). […]
Value kind: viability at 72 h, 0.037037 µM (%)
# output: bare number, implied unit %

### Prompt Which viability at 72 h, 0.037037 µM value belongs to CC1(C)CCC(c2ccc(Cl)cc2)=C(CN2CCN(c3ccc(C(=O)NS(=O)(=O)c4ccc(N[C@H](CCN5CCOCC5)CSc5ccccc5)c(S(=O)(=O)C(F)(F)F)c4)cc3)CC2)C1 [ABT263, navitoclax] ?
### Response 107

----------
Measured Dmax, listed per entry.
# System name: BCL-2 (Homo sapiens)
# Construct: endogenous in cells
# Sequence (P10415 whole entry): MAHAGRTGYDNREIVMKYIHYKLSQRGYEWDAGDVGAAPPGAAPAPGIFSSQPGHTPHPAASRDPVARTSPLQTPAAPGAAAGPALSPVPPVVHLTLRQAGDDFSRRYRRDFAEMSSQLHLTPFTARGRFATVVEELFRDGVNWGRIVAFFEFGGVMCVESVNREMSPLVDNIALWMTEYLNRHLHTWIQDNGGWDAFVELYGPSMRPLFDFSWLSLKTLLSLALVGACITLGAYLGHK
# Experiment: BCL-2 degradation by immunoblot in 293T cells
# Format: cell-based
# Condition set: HEK-293T
# output: bare number, implied unit %

Answered cases to consult:
Compound	System name	Recorded value
Cc1ncsc1-c1ccc([C@H](C)NC(=O)[C@@H]2C[C@@H](O)CN2C(=O)[C@@H](NC(=O)CCCC(=O)N2CCN(CC3(C)CCC(c4ccc(Cl)cc4)=C(CN4CCN(c5ccc(C(=O)NS(=O)(=O)c6ccc(N[C@H](CCN7CCOCC7)CSc7ccccc7)c(S(=O)(=O)C(F)(F)F)c6)cc5)CC4)C3)CC2)C(C)(C)C)cc1 (stereo partly drawn)	BCL-2 (Homo sapiens)	47
Cc1ncsc1-c1ccc([C@H](C)NC(=O)[C@@H]2C[C@@H](O)CN2C(=O)[C@@H](NC(=O)CCCCCCCCC(=O)N2CCN(CC3(C)CCC(c4ccc(Cl)cc4)=C(CN4CCN(c5ccc(C(=O)NS(=O)(=O)c6ccc(N[C@H](CCN7CCOCC7)CSc7ccccc7)c(S(=O)(=O)C(F)(F)F)c6)cc5)CC4)C3)CC2)C(C)(C)C)cc1 (stereo partly drawn)	BCL-2 (Homo sapiens)	69

Turning now to a further record.
### Prompt Item: Cc1ncsc1-c1ccc([C@H](C)NC(=O)[C@@H]2C[C@@H](O)CN2C(=O)[C@@H](NC(=O)CCCCCCC(=O)N2CCN(CC3(C)CCC(c4ccc(Cl)cc4)=C(CN4CCN(c5ccc(C(=O)NS(=O)(=O)c6ccc(N[C@H](CCN7CCOCC7)CSc7ccccc7)c(S(=O)(=O)C(F)(F)F)c6)cc5)CC4)C3)CC2)C(C)(C)C)cc1 (stereo partly drawn) Test system: BCL-2 (Homo sapiens) Read-out: Dmax Value: ?
### Response 94

----------
# System name: BCL-xL (Homo sapiens)
# Construct: endogenous in cells
# Sequence (Q07817 whole entry): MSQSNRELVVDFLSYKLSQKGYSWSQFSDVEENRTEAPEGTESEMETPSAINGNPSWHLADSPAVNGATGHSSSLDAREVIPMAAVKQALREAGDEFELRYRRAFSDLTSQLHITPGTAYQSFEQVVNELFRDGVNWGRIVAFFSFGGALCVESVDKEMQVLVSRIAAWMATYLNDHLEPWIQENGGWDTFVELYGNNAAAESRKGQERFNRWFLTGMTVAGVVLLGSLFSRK
# Experiment: BCL-xL degradation by immunoblot in 293T cells
# Assay type: cell-based
# Condition set: 293T cells, four concentrations, 16 h; Fig. 2b; read-out: BCL-xL DC50
Value kind: DC50 (nM)
# output: bare number, implied unit nM

### Prompt Item: Cc1ncsc1-c1ccc([C@H](C)NC(=O)[C@@H]2C[C@@H](O)CN2C(=O)[C@@H](NC(=O)CCCCCC(=O)N2CCN(CC3(C)CCC(c4ccc(Cl)cc4)=C(CN4CCN(c5ccc(C(=O)NS(=O)(=O)c6ccc(N[C@H](CCN7CCOCC7)CSc7ccccc7)c(S(=O)(=O)C(F)(F)F)c6)cc5)CC4)C3)CC2)C(C)(C)C)cc1 (stereo partly drawn) Test system: BCL-xL (Homo sapiens) Read-out: DC50 Value: ?
### Response 12.8

### Prompt Repeat for the following compound: Cc1ncsc1-c1ccc([C@H](C)NC(=O)[C@@H]2C[C@@H](O)CN2C(=O)[C@@H](NC(=O)CCCCC(=O)N2CCN(CC3(C)CCC(c4ccc(Cl)cc4)=C(CN4CCN(c5ccc(C(=O)NS(=O)(=O)c6ccc(N[C@H](CCN7CCOCC7)CSc7ccccc7)c(S(=O)(=O)C(F)(F)F)c6)cc5)CC4)C3)CC2)C(C)(C)C)cc1 (stereo partly drawn)
### Response 39.9

### Prompt Repeat for the following compound: Cc1ncsc1-c1ccc([C@H](C)NC(=O)[C@@H]2C[C@@H](O)CN2C(=O)[C@@H](NC(=O)CCCCCCC(=O)N2CCN(CC3(C)CCC(c4ccc(Cl)cc4)=C(CN4CCN(c5ccc(C(=O)NS(=O)(=O)c6ccc(N[C@H](CCN7CCOCC7)CSc7ccccc7)c(S(=O)(=O)C(F)(F)F)c6)cc5)CC4)C3)CC2)C(C)(C)C)cc1 (stereo partly drawn)
### Response 12.9
